Collected IC50 values appear next to each entry.
target: Bcl-2 (Homo sapiens); experiment: Competitive fluorescence polarization assay, displacement of Flu-BakBH3 peptide from Bcl-2; assay type: binding; conditions: inhibition of Bak BH3 peptide binding to Bcl-2, FP; read-out: IC50 Bcl-2/Bak
Endpoint Label: IC50 (µM)

[[record]]
compound = "CC(C)=CCOc1c(C)c(C)c2c(c1C)CCC(C)(COc1ccc(/C=C3\\SC(=O)NC3=O)cc1)O2 (centres unmarked)"
sign_qualifier = "="
meas_value = 4.8

[[record]]
compound = "C=CCOc1c(C)c(C)c2c(c1C)CCC(C)(COc1ccc(/C=C3\\SC(=O)NC3=O)cc1C)O2 (centres unmarked)"
sign_qualifier = "="
meas_value = 3.5

[[record]]
compound = "CCc1ccc(CCOc2ccc(/C=C3\\SC(=O)NC3=O)cc2)nc1"
sign_qualifier = ">"
meas_value = 50

[[record]]
compound = "C=CCOc1c(C)c(C)c2c(c1C)CCC(C)(COc1ccc(/C=C3\\SC(=O)NC3=O)cc1OC)O2 (centres unmarked)"
sign_qualifier = "="
meas_value = 4.4

[[record]]
compound = "C=CCOc1c(C)c(C)c2c(c1C)CCC(C)(COc1ccc(/C=C3\\SC(=O)N(CC(=O)OC)C3=O)cc1)O2 (centres unmarked)"
sign_qualifier = ">"
meas_value = 50

[[record]]
compound = "Cc1c(C)c2c(c(C)c1OC(=O)CCC(=O)O)CCC(C)(COc1ccc(/C=C3\\SC(=O)NC3=O)cc1)O2 (centres unmarked)"
sign_qualifier = "="
meas_value = 30

[[record]]
compound = "Cc1c(C)c2c(c(C)c1OC/C=C/c1ccccc1)CCC(C)(COc1ccc(/C=C3\\SC(=O)NC3=O)cc1Br)O2 (centres unmarked)"
sign_qualifier = "="
meas_value = 3.1

[[record]]
compound = "Cc1c(C)c2c(c(C)c1O)CCC(C)(COc1ccc(/C=C3\\SC(=O)NC3=O)cc1)O2 (centres unmarked)"
sign_qualifier = "="
meas_value = 18


----------
target: Bcl-2 (Homo sapiens, UniProt P10415); test: Competitive fluorescence polarization assay, displacement of Flu-BakBH3 peptide from Bcl-2; assay type: binding; details: inhibition of Bak BH3 peptide binding to Bcl-2, FP; read-out: IC50 Bcl-2/Bak
Sequence (P10415 whole entry): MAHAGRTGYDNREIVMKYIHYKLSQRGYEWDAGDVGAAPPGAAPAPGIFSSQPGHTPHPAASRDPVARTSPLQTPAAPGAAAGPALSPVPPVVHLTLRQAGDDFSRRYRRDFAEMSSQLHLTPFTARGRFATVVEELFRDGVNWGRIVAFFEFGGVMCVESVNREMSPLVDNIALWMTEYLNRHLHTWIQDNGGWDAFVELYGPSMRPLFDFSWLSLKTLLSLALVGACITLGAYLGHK
Response field label takes YES when IC50 is strictly below 5 µM and NO in all other cases.

[[record]]
molecule = "Cc1c(C)c2c(c(C)c1OC/C=C/c1ccccc1)CCC(C)(COc1ccc(/C=C3\\SC(=O)NC3=O)cc1)O2 (stereo not drawn) [TG-10]"
assigned_label = "NO"

[[record]]
molecule = "CCc1ccc(-c2cc(/C=C3\\SC(=O)NC3=O)ccc2OCC2(C)CCc3c(C)c(OCC=C(C)C)c(C)c(C)c3O2)cc1 (stereo not drawn) [TG-33]"
assigned_label = "NO"

[[record]]
molecule = "C=CCOc1c(C)c(C)c2c(c1C)CCC(C)(COc1ccc(/C=C3\\SC(=O)NC3=O)cc1)O2 (stereo not drawn) [TG-6]"
assigned_label = "NO"

[[record]]
molecule = "CC(C)=CCOc1c(C)c(C)c2c(c1C)CCC(C)(COc1ccc(/C=C3\\SC(=O)NC3=O)cc1Br)O2 (stereo not drawn) [TG-88]"
assigned_label = "YES"

[[record]]
molecule = "CC1(COc2ccc(/C=C3\\SC(=O)NC3=O)cc2)CCCCC1 [Δ2-CG]"
assigned_label = "NO"

[[record]]
molecule = "C=CCOc1c(C)c(C)c2c(c1C)CCC(C)(COc1ccc(/C=C3\\SC(=S)NC3=O)cc1)O2 (stereo not drawn) [TG-3]"
assigned_label = "NO"

[[record]]
molecule = "CC(C)=CCOc1c(C)c(C)c2c(c1C)CCC(C)(COc1ccc(/C=C3\\SC(=O)NC3=O)cc1F)O2 (stereo not drawn) [TG-30]"
assigned_label = "YES"

[[record]]
molecule = "C=CCOc1c(C)c(C)c2c(c1C)CCC(C)(COc1ccc(/C=C3\\SC(=O)NC3=O)cc1Br)O2 (stereo not drawn) [TG-27]"
assigned_label = "YES"

[[record]]
molecule = "COc1cc(/C=C2\\SC(=O)NC2=O)ccc1OCC1(C)CCc2c(C)c(OCC=C(C)C)c(C)c(C)c2O1 (stereo not drawn) [TG-16]"
assigned_label = "YES"


----------
molecular target: Bcl-xL (Homo sapiens, UniProt Q07817); construct: fused on or other part: His tag; assay: Competitive fluorescence polarization assay, displacement of Flu-BakBH3 peptide from Bcl-xL; format: binding; conditions: inhibition of Bak BH3 peptide binding to Bcl-xL, FP; read-out: IC50 Bcl-xl/Bak
Sequence (Q07817 1-209 limits assumed): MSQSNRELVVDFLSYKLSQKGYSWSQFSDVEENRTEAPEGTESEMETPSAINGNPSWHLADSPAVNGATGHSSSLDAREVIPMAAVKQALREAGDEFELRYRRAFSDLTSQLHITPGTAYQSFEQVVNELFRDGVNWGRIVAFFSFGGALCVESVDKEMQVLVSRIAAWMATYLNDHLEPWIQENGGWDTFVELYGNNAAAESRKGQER
pIC50: −log10 of the molar value.
Is pIC50 at least 5? Then rule met. If not, rule not met.

[[record]]
compound = "C=CCOc1c(C)c(C)c2c(c1C)CCC(C)(COc1ccc(/C=C3\\SC(=O)NC3=O)cc1C)O2 (stereo not drawn)"
study_system = "Bcl-xL (Homo sapiens, UniProt Q07817)"
assigned_label = "rule met"

[[record]]
compound = "CCc1ccc(CCOc2ccc(/C=C3\\SC(=O)NC3=O)cc2)nc1"
study_system = "Bcl-xL (Homo sapiens, UniProt Q07817)"
assigned_label = "rule not met"

[[record]]
compound = "C=CCOc1c(C)c(C)c2c(c1C)CCC(C)(COc1ccc(/C=C3\\SC(=O)NC3=O)cc1)O2 (stereo not drawn)"
study_system = "Bcl-xL (Homo sapiens, UniProt Q07817)"
assigned_label = "rule met"

[[record]]
compound = "CC(C)=CCOc1c(C)c(C)c2c(c1C)CCC(C)(COc1ccc(/C=C3\\SC(=O)NC3=O)cc1C)O2 (stereo not drawn)"
study_system = "Bcl-xL (Homo sapiens, UniProt Q07817)"
assigned_label = "rule met"

[[record]]
compound = "CC(C)=CCOc1c(C)c(C)c2c(c1C)CCC(C)(COc1c(Br)cc(/C=C3\\SC(=O)NC3=O)cc1Br)O2 (stereo not drawn)"
study_system = "Bcl-xL (Homo sapiens, UniProt Q07817)"
assigned_label = "rule met"

[[record]]
compound = "CCc1ccc(-c2cc(/C=C3\\SC(=O)NC3=O)ccc2OCC2(C)CCc3c(C)c(OCC=C(C)C)c(C)c(C)c3O2)cc1 (stereo not drawn)"
study_system = "Bcl-xL (Homo sapiens, UniProt Q07817)"
assigned_label = "rule not met"

[[record]]
compound = "Cc1c(C)c2c(c(C)c1O)CCC(C)(COc1ccc(CC3SC(=O)NC3=O)cc1)O2 (stereo not drawn) [TG, troglitazone, reference compound]"
study_system = "Bcl-xL (Homo sapiens, UniProt Q07817)"
assigned_label = "rule not met"

[[record]]
compound = "C=CCOc1c(C)c(C)c2c(c1C)CCC(C)(COc1ccc(/C=C3\\SC(=O)N(CC(=O)OC)C3=O)cc1)O2 (stereo not drawn)"
study_system = "Bcl-xL (Homo sapiens, UniProt Q07817)"
assigned_label = "rule not met"

[[record]]
compound = "CC(C)=CCOc1c(C)c(C)c2c(c1C)CCC(C)(COc1ccc(/C=C3\\SC(=O)NC3=O)cc1F)O2 (stereo not drawn)"
study_system = "Bcl-xL (Homo sapiens, UniProt Q07817)"
assigned_label = "rule met"

[[record]]
compound = "C=CCOc1c(C)c(C)c2c(c1C)CCC(C)(COc1ccc(/C=C3\\SC(=O)NC3=O)cc1OC)O2 (stereo not drawn)"
study_system = "Bcl-xL (Homo sapiens, UniProt Q07817)"
assigned_label = "rule met"

[[record]]
compound = "CC1(COc2ccc(/C=C3\\SC(=O)NC3=O)cc2)CCCCC1"
study_system = "Bcl-xL (Homo sapiens, UniProt Q07817)"
assigned_label = "rule not met"

[[record]]
compound = "CC(C)=CCOc1c(C)c(C)c2c(c1C)CCC(C)(COc1ccc(/C=C3\\SC(=O)NC3=O)cc1Br)O2 (stereo not drawn)"
study_system = "Bcl-xL (Homo sapiens, UniProt Q07817)"
assigned_label = "rule met"

[[record]]
compound = "O=C1NC(=O)/C(=C/c2ccc(OCC3CCc4ccccc4C3)cc2)S1 (stereo not drawn)"
study_system = "Bcl-xL (Homo sapiens, UniProt Q07817)"
assigned_label = "rule not met"

[[record]]
compound = "CC(C)=CCOc1c(C)c(C)c2c(c1C)CCC(C)(COc1ccc(/C=C3\\SC(=O)NC3=O)cc1-c1ccc(C(F)(F)F)cc1)O2 (stereo not drawn)"
study_system = "Bcl-xL (Homo sapiens, UniProt Q07817)"
assigned_label = "rule met"

[[record]]
compound = "CC(C)=CCOc1c(C)c(C)c2c(c1C)CCC(C)(COc1ccc(/C=C3\\SC(=O)NC3=O)cc1)O2 (stereo not drawn)"
study_system = "Bcl-xL (Homo sapiens, UniProt Q07817)"
assigned_label = "rule met"

[[record]]
compound = "Cc1c(C)c2c(c(C)c1OC(=O)CCC(=O)O)CCC(C)(COc1ccc(/C=C3\\SC(=O)NC3=O)cc1)O2 (stereo not drawn)"
study_system = "Bcl-xL (Homo sapiens, UniProt Q07817)"
assigned_label = "rule not met"

[[record]]
compound = "C=CCOc1c(C)c(C)c2c(c1C)CCC(C)(COc1ccc(/C=C3\\SC(=S)NC3=O)cc1)O2 (stereo not drawn)"
study_system = "Bcl-xL (Homo sapiens, UniProt Q07817)"
assigned_label = "rule met"

[[record]]
compound = "Cc1c(C)c2c(c(C)c1OCc1ccccc1)CCC(C)(COc1ccc(/C=C3\\SC(=O)NC3=O)cc1)O2 (stereo not drawn)"
study_system = "Bcl-xL (Homo sapiens, UniProt Q07817)"
assigned_label = "rule not met"

[[record]]
compound = "C=CCOc1c(C)c(C)c2c(c1C)CCC(C)(COc1ccc(/C=C3\\SC(=O)NC3=O)cc1Br)O2 (stereo not drawn)"
study_system = "Bcl-xL (Homo sapiens, UniProt Q07817)"
assigned_label = "rule met"

[[record]]
compound = "CC(C)=CCOc1c(C)c(C)c2c(c1C)CCC(C)(COc1ccc(/C=C3\\SC(=O)NC3=O)cc1-c1ccc(F)cc1)O2 (stereo not drawn)"
study_system = "Bcl-xL (Homo sapiens, UniProt Q07817)"
assigned_label = "rule met"

[[record]]
compound = "Cc1c(C)c2c(c(C)c1O)CCC(C)(COc1ccc(/C=C3\\SC(=O)NC3=O)cc1)O2 (stereo not drawn)"
study_system = "Bcl-xL (Homo sapiens, UniProt Q07817)"
assigned_label = "rule not met"

[[record]]
compound = "Cc1c(C)c2c(c(C)c1OC/C=C/c1ccccc1)CCC(C)(COc1ccc(/C=C3\\SC(=O)NC3=O)cc1Br)O2 (stereo not drawn)"
study_system = "Bcl-xL (Homo sapiens, UniProt Q07817)"
assigned_label = "rule met"

[[record]]
compound = "COc1cc(/C=C2\\SC(=O)NC2=O)ccc1OCC1(C)CCc2c(C)c(OCC=C(C)C)c(C)c(C)c2O1 (stereo not drawn)"
study_system = "Bcl-xL (Homo sapiens, UniProt Q07817)"
assigned_label = "rule met"

